Tested on: GP2d cells (KRAS G12D)
Test details: Cell-based pERK HTRF assay in GP2d cell (Biological Example 2)
Protocol conditions: GP2d, GP2d (KRAS G12D) cells, pERK HTRF
Method: A pERK assay (Perkin Elmer) was used to determine the effectiveness of compounds in disrupting KRAS G12D protein/effector signaling in cells. […] Samples were homogenized by pipetting up and down and then transferred (16 μL of cell lysates) from the 96-well cell culture plate to two wells of the HTRF 384-well detection plate containing the antibody solution. […] Therefore, readings can be made between 4 and 24 h of incubation. […]
pIC50: −log10 of the molar value.
Quantity measured: pIC50

Worked examples follow.
{"Molecule": "CCN(c1nc(OC[C@@]23CCCN2C[C@H](F)C3)nc2c(F)c(-c3ccc(F)c4sc(N)c(C#N)c34)c(C(F)(F)F)cc12)[C@H]1C[C@@H](O)C1 [Compound 26]", "pIC50": "> 7.00"}
{"Molecule": "N#Cc1c(N)sc2c(F)ccc(-c3c(C(F)(F)F)cc4c(N5CCCC6(C5)NC(=O)NC6=O)nc(OC[C@@]56CCCN5C[C@H](F)C6)nc4c3F)c12 (some centres unmarked) [Compound 248]", "pIC50": "6.00 to 7.00"}
{"Molecule": "CN1C[C@@H](N(C)c2nc(OC[C@@]34CCCN3C[C@H](F)C4)nc3c(F)c(-c4ccc(F)c5sc(N)c(C#N)c45)c(C(F)(F)F)cc23)CCC1=O [Compound 478]", "pIC50": "> 7.00"}
{"Molecule": "N#Cc1c(N)sc2c(F)ccc(-c3c(C(F)(F)F)cc4c(N5C[C@@H]6[C@H]5CCN6C(=O)C5CC5)nc(OC[C@@]56CCCN5C[C@H](F)C6)nc4c3F)c12 [Compound 535]", "pIC50": "> 7.00"}

We now examine a further molecule.
Request: pIC50 lookup needed for CN(c1nc(OC[C@@]23CCCN2C[C@H](F)C3)nc2cc(-c3ccc(F)c4sc(N)c(C#N)c34)c(C#N)cc12)[C@H]1C[C@@H](O)C1 [Compound 29] , thanks.
Result: 6.00 to 7.00
